Experiment: Solubility study, visually estimated by dosing solvent aliquots into 10.0 mg API
Type: physicochemical
Conditions: organic solvent or mixture, thermodynamic from solid; IPA, RT; read-out: Solubility at RT
Parameter measured: solubility

Entry O=C(O)c1nc2ccccc2n([C@H]2C[C@H]3CCC[C@@H](C2)N3C2CC3CCCC(C3)C2)c1=O (stereo partly shown) [Form A] has what solubility?
< 6000 µg/mL

---

Assay: Solubility study, visually estimated by dosing solvent aliquots into 10.0 mg API
Type: physicochemical
Settings: organic solvent or mixture, thermodynamic from solid; IPA:water (9:1), 40° C.; read-out: Solubility at 40° C.
Parameter measured: solubility

Entry O=C(O)c1nc2ccccc2n([C@H]2C[C@H]3CCC[C@@H](C2)N3C2CC3CCCC(C3)C2)c1=O (stereo partly shown) [Form A] has what solubility?
< 6 mg/mL

---

Experiment: Solubility study, visually estimated by dosing solvent aliquots into 10.0 mg API
Type: physicochemical
Conditions: organic solvent or mixture, thermodynamic from solid; MTBE, RT; read-out: Solubility at RT
Parameter measured: solubility

Entry O=C(O)c1nc2ccccc2n([C@H]2C[C@H]3CCC[C@@H](C2)N3C2CC3CCCC(C3)C2)c1=O (stereo partly shown) [Form A] has what solubility?
< 6000 µg/mL

---

Test: Solubility study, visually estimated by dosing solvent aliquots into 10.0 mg API
Type: physicochemical
Settings: organic solvent or mixture, thermodynamic from solid; EtOAc, RT; read-out: Solubility at RT
Parameter measured: solubility

Entry O=C(O)c1nc2ccccc2n([C@H]2C[C@H]3CCC[C@@H](C2)N3C2CC3CCCC(C3)C2)c1=O (stereo partly shown) [Form A] has what solubility?
< 6000 µg/mL

---

Test: Solubility study, visually estimated by dosing solvent aliquots into 10.0 mg API
Assay type: physicochemical
Settings: organic solvent or mixture, thermodynamic from solid; THF, 40° C.; read-out: Solubility at 40° C.
Parameter measured: solubility

Entry O=C(O)c1nc2ccccc2n([C@H]2C[C@H]3CCC[C@@H](C2)N3C2CC3CCCC(C3)C2)c1=O (stereo partly shown) [Form A] has what solubility?
< 6000 µg/mL

---

Assay: Solubility study, visually estimated by dosing solvent aliquots into 10.0 mg API
Type: physicochemical
Settings: organic solvent or mixture, thermodynamic from solid; IPE, RT; read-out: Solubility at RT
Parameter measured: solubility

Entry O=C(O)c1nc2ccccc2n([C@H]2C[C@H]3CCC[C@@H](C2)N3C2CC3CCCC(C3)C2)c1=O (stereo partly shown) [Form A] has what solubility?
< 6000 µg/mL

---

Assay: Solubility study, visually estimated by dosing solvent aliquots into 10.0 mg API
Type: physicochemical
Details: organic solvent or mixture, thermodynamic from solid; MeOH, RT; read-out: Solubility at RT
Parameter measured: solubility

Entry O=C(O)c1nc2ccccc2n([C@H]2C[C@H]3CCC[C@@H](C2)N3C2CC3CCCC(C3)C2)c1=O (stereo partly shown) [Form A] has what solubility?
< 7000 µg/mL

---

Test: Solubility study, visually estimated by dosing solvent aliquots into 10.0 mg API
Format: physicochemical
Conditions: all solvents of Table 3 other than DMSO, organic solvent or mixture, thermodynamic from solid; read-out: Solubility (low) in all other solvents evaluated
Parameter measured: solubility

Entry O=C(O)c1nc2ccccc2n([C@H]2C[C@H]3CCC[C@@H](C2)N3C2CC3CCCC(C3)C2)c1=O (stereo partly shown) [Formula (I)] has what solubility?
≤ 7 mg/mL

---

Test: Solubility study, visually estimated by dosing solvent aliquots into 10.0 mg API
Type: physicochemical
Settings: organic solvent or mixture, thermodynamic from solid; IPA, 40° C.; read-out: Solubility at 40° C.
Parameter measured: solubility

Entry O=C(O)c1nc2ccccc2n([C@H]2C[C@H]3CCC[C@@H](C2)N3C2CC3CCCC(C3)C2)c1=O (stereo partly shown) [Form A] has what solubility?
< 6000 µg/mL
